# procedureDetails: Brain distribution after single intraperitoneal dose in FVB wild-type, Bcrp1-/-, Mdr1a/b-/- and Mdr1a/b-/- Bcrp1-/- mice
# Type: in vivo, mouse (FVB)
# experimentalParameters: FVB, mouse, brain, intraperitoneal, 10 mg/kg, 10 mg/kg i.p.; 2 hrs; Mdr1a/b-/-; read-out: Cbrain
valueKind: concentration at 2 h (ng/mL)
State the answer as a number, implicitly in ng/mL.

stdin: Value lookup for concentration at 2 h; key = Cc1ccc(C(=O)N(CCCN)[C@@H](c2nc3cc(Cl)ccc3c(=O)n2Cc2ccccc2)C(C)C)cc1 [Ispinesib]
stdout: 580

====

# procedureDetails: in vivo
# experimentalParameters: FVB, mouse, brain, intraperitoneal, 10 mg/kg
valueKind: concentration at 6 h (ng/mL)
Your answer should be a plain number; it is taken to be in ng/mL.

stdin: What measured concentration at 6 h goes with Cc1ccc(C(=O)N(CCCN)[C@@H](c2nc3cc(Cl)ccc3c(=O)n2Cc2ccccc2)C(C)C)cc1 ?
stdout: 270

This collection of values is drawn from paper PMC7162859.
